Molecular target: Hypoxia inducible factors; HIF-1-alpha, HIF-2-alpha (Homo sapiens, UniProt Q16665+Q99814)
Assay: Inhibition of hypoxia-induced HIF1 activation in human PC3 cells by reporter gene assay
Assay type: cell-based
Details: pc-3
I'd appreciate it if you could supply IC50 values for the items below.

chemical-smiles | assayed-target | parameter | result
C=C1CC[C@@H]2OC(C)(C)[C@H](O)CC[C@@]2(C)[C@@H]1CC[C@]1(O)[C@@H](C)CC[C@@H]2OC(C)(C)C(=O)CC[C@]21C | Hypoxia inducible factors; HIF-1-alpha, HIF-2-alpha (Homo sapiens, UniProt Q16665+Q99814) | IC50 | > 30 µM
CC1=C(CCC2=C(C)CC[C@@H]3OC(C)(C)[C@H](O)CC[C@@]23C)[C@]2(C)CCC(=O)C(C)(C)O[C@H]2CC1 | Hypoxia inducible factors; HIF-1-alpha, HIF-2-alpha (Homo sapiens, UniProt Q16665+Q99814) | IC50 | > 30 µM

Consider CC1=C(CC[C@H]2[C@]3(C)CCC(=O)C(C)(C)O[C@H]3CC[C@]2(C)O)[C@@]2(C)CCC(=O)C(C)(C)C2=C(O)C1=O . Its measured IC50 is > 30 µM

* * *

Target: Hypoxia inducible factors; HIF-1-alpha, HIF-2-alpha (Homo sapiens, UniProt Q16665+Q99814)
Test: Inhibition of hypoxia-induced HIF1 activation in human T47D cells by reporter gene assay
Format: cell-based
I'd appreciate it if you could supply IC50 values for the items below.

Give IC50 for each of the items listed below.
1. CC1=C(CCC2=C(C)CC[C@@H]3OC(C)(C)[C@H](O)CC[C@@]23C)[C@]2(C)CCC(=O)C(C)(C)O[C@H]2CC1
2. C=C1CC[C@@H]2OC(C)(C)[C@H](O)CC[C@@]2(C)[C@@H]1CC[C@]1(O)[C@@H](C)CC[C@@H]2OC(C)(C)C(=O)CC[C@]21C
3. CC1=C(CC[C@H]2[C@]3(C)CCC(=O)C(C)(C)O[C@H]3CC[C@]2(C)O)[C@@]2(C)CCC(=O)C(C)(C)C2=C(O)C1=O
4. CC1=C(CCC23CCC(=O)C(C)(C)C2=C(O)C(=O)C(C)=C3C)[C@]2(C)CCC(=O)C(C)(C)O[C@H]2CC1 (stereo partly drawn)
5. C[C@H]1CC[C@@H]2OC(C)(C)C(=O)CC[C@@]2(C)[C@@]12O[C@H]([C@@]1(C)CC[C@@H]3OC(C)(C)C(=O)CC[C@]31C)C[C@H]2O
6. C=C1CC[C@@H]2OC(C)(C)[C@H](OC(C)=O)CC[C@@]2(C)[C@@H]1CC[C@]1(O)[C@@H](C)CC[C@@H]2OC(C)(C)C(=O)CC[C@]21C

Response:
["20 µM", "25 µM", "20 µM", "> 30 µM", "> 30 µM", "20 µM"]

Give IC50 for each of the items listed below.
1. C[C@H]1CC[C@@H]2OC(C)(C)C(=O)CC[C@@]2(C)[C@]12CC[C@@H]([C@@]1(C)CC[C@@H]3OC(C)(C)C(=O)CC[C@]31C)O2
2. CC1=C(CC[C@@H]2[C@H](C)CC[C@@H]3OC(C)(C)C(=O)CC[C@]32C)[C@@]2(C)CCC(=O)C(C)(C)C2=C(O)C1=O

Response:
> 30 µM
> 30 µM

* * *

Biological target: Hypoxia inducible factors; HIF-1-alpha, HIF-2-alpha (Homo sapiens, UniProt Q16665+Q99814)
Assay: Inhibition of 1,10 phenanthroline-induced HIF1 activation in human T47D cells by reporter gene assay
Type: cell-based
parameter: IC50

The cases that follow already have their IC50 on record.
chemical-smiles | IC50
C=C1CC[C@@H]2OC(C)(C)[C@H](OC(C)=O)CC[C@@]2(C)[C@@H]1CC[C@]1(O)[C@@H](C)CC[C@@H]2OC(C)(C)C(=O)CC[C@]21C | > 30 µM
C[C@H]1CC[C@@H]2OC(C)(C)C(=O)CC[C@@]2(C)[C@@]12O[C@H]([C@@]1(C)CC[C@@H]3OC(C)(C)C(=O)CC[C@]31C)C[C@H]2O | > 30 µM
C[C@H]1CC[C@@H]2OC(C)(C)[C@@H](O)CC=C2[C@@]1(C)CC[C@]1(C)[C@@H](C)CC[C@@H]2OC(C)(C)[C@@]3(O)CC[C@]21O3 | 15 µM

Give IC50 for each of the items listed below.
1. CC1=C(CC[C@@H]2[C@H](C)CC[C@@H]3OC(C)(C)C(=O)CC[C@]32C)[C@@]2(C)CCC(=O)C(C)(C)C2=C(O)C1=O
2. CC1=C(CC[C@H]2[C@]3(C)CCC(=O)C(C)(C)O[C@H]3CC[C@]2(C)O)[C@@]2(C)CCC(=O)C(C)(C)C2=C(O)C1=O
3. CC1=C(CCC2=C(C)CC[C@@H]3OC(C)(C)[C@H](O)CC[C@@]23C)[C@]2(C)CCC(=O)C(C)(C)O[C@H]2CC1

Response:
1: > 30 µM; 2: > 30 µM; 3: 20 µM

* * *

I'd appreciate it if you could supply IC50 values for the items below.
Target: Hypoxia inducible factors; HIF-1-alpha, HIF-2-alpha (Homo sapiens, UniProt Q16665+Q99814)
Assay: Inhibition of 1,10 phenanthroline-induced HIF1 activation in human T47D cells by reporter gene assay
Assay type: cell-based

The cases that follow already have their IC50 on record.
compound | assayed-target | result
CC1=C(CCC2=C(C)C(=O)C(O)=C3C(C)(C)C(=O)CC[C@]23C)[C@]2(C)CCC(=O)C(C)(C)O[C@H]2CC1 [10,11-DIHYDROSODWANONE B] | Hypoxia inducible factors; HIF-1-alpha, HIF-2-alpha (Homo sapiens, UniProt Q16665+Q99814) | 30 µM
CC1=C(CCC23CCC(=O)C(C)(C)C2=C(O)C(=O)C(C)=C3C)[C@]2(C)CCC(=O)C(C)(C)O[C@H]2CC1 (stereo partly drawn) [SODWANONE U] | Hypoxia inducible factors; HIF-1-alpha, HIF-2-alpha (Homo sapiens, UniProt Q16665+Q99814) | > 30 µM

Now take the following compound into account.
Consider C=C1CC[C@@H]2OC(C)(C)[C@H](O)CC[C@@]2(C)[C@@H]1CC[C@]1(O)[C@@H](C)CC[C@@H]2OC(C)(C)C(=O)CC[C@]21C . Its measured IC50 is > 30 µM

* * *

Target: Hypoxia inducible factors; HIF-1-alpha, HIF-2-alpha (Homo sapiens, UniProt Q16665+Q99814)
Assay: Inhibition of hypoxia-induced HIF1 activation in human PC3 cells by reporter gene assay
Type: cell-based
Settings: pc-3
I'd appreciate it if you could supply IC50 values for the items below.

compound | parameter | result
C=C1CC[C@@H]2OC(C)(C)[C@H](OC(C)=O)CC[C@@]2(C)[C@@H]1CC[C@]1(O)[C@@H](C)CC[C@@H]2OC(C)(C)C(=O)CC[C@]21C | IC50 | > 30 µM
CC1=C(CCC2=C(C)C(=O)C(O)=C3C(C)(C)C(=O)CC[C@]23C)[C@]2(C)CCC(=O)C(C)(C)O[C@H]2CC1 [10,11-DIHYDROSODWANONE B] | IC50 | > 30 µM
C[C@H]1CC[C@@H]2OC(C)(C)[C@@H](O)CC=C2[C@@]1(C)CC[C@]1(C)[C@@H](C)CC[C@@H]2OC(C)(C)[C@@]3(O)CC[C@]21O3 | IC50 | 15 µM
CC1=C(CC[C@@H]2[C@H](C)CC[C@@H]3OC(C)(C)C(=O)CC[C@]32C)[C@@]2(C)CCC(=O)C(C)(C)C2=C(O)C1=O | IC50 | > 30 µM
CC1=C(CCC23CCC(=O)C(C)(C)C2=C(O)C(=O)C(C)=C3C)[C@]2(C)CCC(=O)C(C)(C)O[C@H]2CC1 (stereo partly specified) | IC50 | > 30 µM

Now take the following compound into account.
Consider C[C@H]1CC[C@@H]2OC(C)(C)C(=O)CC[C@@]2(C)[C@@]12O[C@H]([C@@]1(C)CC[C@@H]3OC(C)(C)C(=O)CC[C@]31C)C[C@H]2O . Its measured IC50 is > 30 µM
